Listing: Maximum absorption wavelength λmax of selected molecules
- EXPERIMENTAL PROTOCOL: Photochromic properties of cast polymer (2 mm thick) under xenon lamp irradiation for 120 seconds
- Format: physicochemical
- STUDY CONDITIONS: single chromene compound 0.04% by weight in polymer, 20° C.; Table 5
REPORTED ENDPOINT: Maximum absorption wavelength λmax (nm)

> print(dat)
                                   molecule  result.number
1  CCC(C)(C)c1cc2ccccc2c2c1C=CC(c1ccc(OC)cc1)(c1ccco1)O2 (centres unmarked) [Compound 3]            488
2  CCOc1ccc(C2(c3ccc(OC)cc3)C=Cc3c(CC)cc4c(Cc5ccccc5)cccc4c3O2)cc1 (centres unmarked) [Compound 39]            524
3  COc1ccc(C2(c3ccco3)C=Cc3c(C)cc4c(F)ccc(C)c4c3O2)cc1 (centres unmarked) [Compound 41]            510
4  CCCCc1cc2cccc(Br)c2c2c1C=CC(c1ccc(OC)c(F)c1)(c1ccc(OC)c(F)c1)O2 [Compound 38]            482
5  COc1ccc(C2(c3ccco3)C=Cc3c(C)cc4ccccc4c3O2)cc1F (centres unmarked) [Compound 31]            506
6  COc1ccc(C2(c3ccc(OC(F)(F)F)cc3)C=Cc3c(C(C)C)cc4ccccc4c3O2)cc1 (centres unmarked) [Compound 15]            486
7  COc1ccc(C2(c3ccc(OC)c(F)c3)C=Cc3c(C(C)C)cc4ccccc4c3O2)cc1F [Compound 14]            492
8  CCOc1ccc(C2(c3ccc(OCC)cc3)C=Cc3c(C)cc4ccccc4c3O2)cc1 [Compound 29]            504
